Entry source: patent US4558054A

# System: isolated guinea pig ileum (antagonist acetyl choline) (Cavia porcellus)
# Construct: antimuscarinic activity using the isolated guinea pig ileum; from tissue; host or cells: isolated guinea pig ileum
# Sequence (H0W1Z3 1-590): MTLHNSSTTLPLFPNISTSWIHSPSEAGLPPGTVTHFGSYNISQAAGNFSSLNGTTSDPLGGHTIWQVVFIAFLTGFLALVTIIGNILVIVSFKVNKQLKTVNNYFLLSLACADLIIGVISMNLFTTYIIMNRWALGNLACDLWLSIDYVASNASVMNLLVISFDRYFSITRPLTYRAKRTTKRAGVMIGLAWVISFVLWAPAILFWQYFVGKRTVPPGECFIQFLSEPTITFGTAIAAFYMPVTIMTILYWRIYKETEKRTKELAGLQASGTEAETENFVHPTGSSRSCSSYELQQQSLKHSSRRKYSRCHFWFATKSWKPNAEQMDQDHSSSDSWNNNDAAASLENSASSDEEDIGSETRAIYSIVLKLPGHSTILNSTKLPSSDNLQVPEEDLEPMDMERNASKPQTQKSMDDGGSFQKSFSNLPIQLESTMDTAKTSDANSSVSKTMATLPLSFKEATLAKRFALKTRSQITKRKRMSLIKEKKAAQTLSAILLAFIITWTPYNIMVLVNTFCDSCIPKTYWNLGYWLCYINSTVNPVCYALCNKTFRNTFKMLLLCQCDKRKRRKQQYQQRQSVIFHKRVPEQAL
# Method summary: Isolated guinea pig ileum, antimuscarinic activity vs acetyl choline, pA2
# Format: cell-based
# Test settings: with respect to Buscopan (=1)
Everything with Activity ratio lower than 0.5 is n; everything else, including exactly 0.5, is y.

{"columns": ["Compound", "Subject of test", "Classification"],
 "data": [
  ["CCCC(CCC)C(=O)O[C@@H]1C[C@@H]2[C@H]3O[C@H]3[C@H](C1)[N@+]2(C)CC [No. 5]", "isolated guinea pig ileum (antagonist acetyl choline) (Cavia porcellus)", "y"],
  ["CCCC(CCC)C(=O)O[C@@H]1C[C@@H]2[C@H]3O[C@H]3[C@H](C1)[N+]2(C)C [No. 2]", "isolated guinea pig ileum (antagonist acetyl choline) (Cavia porcellus)", "y"],
  ["CCCC(CCC)C(=O)OC1CC2CCC(C1)[N+]2(C)C(C)C (centres unmarked) [Syntropium Br, syntropium bromide, reference compound]", "isolated guinea pig ileum (antagonist acetyl choline) (Cavia porcellus)", "y"],
  ["CCCC(CCC)C(=O)O[C@@H]1C[C@@H]2[C@H]3O[C@H]3[C@H](C1)[N@+]2(C)C(C)C [No. 8]", "isolated guinea pig ileum (antagonist acetyl choline) (Cavia porcellus)", "n"]
]}
